Parameter GI50, tested on HCT-15, listed per item.
Answers are plain numbers, in µM.

The cases that follow already have their GI50 on record.
compound: Cn1cc(-c2ccc(CCOC3CCCCO3)cc2)c2c(C#N)cccc21 (centres undefined)
GI50 [µM]: 16.6

compound: C=C(Cl)C(Cl)(CBr)CCC(Br)C(C)(C)Br (centres undefined)
GI50 [µM]: 3.03

compound: Cc1ccc(S(=O)(=O)N(CC(O)COc2ccccc2)c2c(F)c(F)cc(F)c2F)cc1 (centres undefined)
GI50 [µM]: 20.9

compound: Cn1nc(-c2ccccc2)c(C(=O)/C=C/c2ccc(Cl)cc2)c(N2CCCC2)c1=O
GI50 [µM]: 3.75

compound: O=C(/C=C1/Nc2ccc([N+](=O)[O-])cc2NC1O)c1cccc([N+](=O)[O-])c1 (centres undefined)
GI50 [µM]: 23.5

compound: O=C(/C=C/c1ccc(Cl)c(Cl)c1)CCN1CCN(CCC(=O)/C=C/c2ccc(Cl)c(Cl)c2)CC1
GI50 [µM]: 13.8

compound: COc1ccc2c(c1)CCc1c(-c3n[nH]c4c3CCc3cc(OC)ccc3-4)n[nH]c1-2
GI50 [µM]: 35.1

# input for lookup
Lookup result for CC1C(=NO)C(C)C(c2ccccc2)N(N=O)C1c1ccccc1 (centres undefined) ; measured GI50: 16.6

###

# System: BT-549
# experimental-details: NCI tumour cell line growth inhibition, 48 h
Activity calls are given as the source filed them. No stated cut-off is given here; in the data, active = GI50 up to about 1.1 µM and inactive = higher.
Select the correct class. Options are active, inactive and nothing else.

Answered examples (5):
compound: N#Cc1ccc(/C=[N+](/C=c2ccc(=C=[N-])cc2)N(CCO)C2=NCCN2)cc1
class-assignment: inactive
--
compound: CC(=O)OCC1=C(C)C[C@H]([C@@H](COC(C)=O)C2CCC3C4C[C@H]5O[C@]56CC=CC(=O)[C@]6(C)C4CC[C@@]32C)OC1=O (stereo partly drawn)
class-assignment: active
--
compound: C[N+](C)([O-])CCCNc1c2ccccc2nc2cccc([N+](=O)[O-])c12
class-assignment: active
--
compound: CC(/C=C/C(O)=C1/C(=O)CNC1=O)=C\[C@@H](C)[C@H]1O[C@@]2(C)O[C@H](C(=O)[C@@H]3O[C@@]32C)[C@@H]1C
class-assignment: inactive
--
compound: CN1CCc2cc(N)cc3c2C1Cc1ccc(O)c(O)c1-3 (stereo not drawn)
class-assignment: inactive

Lookup: Recorded test call requested for O=C(OCc1ccccc1)N1CCN(C(=O)OCc2ccccc2)CCN(C(=O)OCc2ccccc2)CCN(C(=O)OCc2ccccc2)CCN(C(=O)OCc2ccccc2)CC1
Found: inactive

Lookup: Recorded test call requested for Fc1cc(-c2cc(-c3ccc4c(c3)OCO4)n[nH]2)c(Cl)cc1Cl
Found: inactive

Lookup: Recorded test call requested for Cc1cc(N(CCC#N)CCC#N)ccc1C(=N/NC(=O)c1cc(Cl)ccc1O)/N=N/c1cccc([N+](=O)[O-])c1
Found: inactive

###

# Test system: PC-3
# experimental-details: NCI tumour cell line growth inhibition, 48 h
The source made the active and inactive calls. Cut-off read from the data, not from the text of the source: active = GI50 up to about 1.1 µM and inactive = higher. Where a SMILES comes first, the peptide text is derived from it. The star is where a group is joined. Boc = CC(C)(C)OC(=O)*; OSu = O=C1CCC(=O)N1O*
attribute-measured: GI50

compound: CC(C)=CCC\C(C)=C/C=C/C(C)=C\C=C\C(C)=C/C=C/C=C(C)\C=C\C=C(C)/C=C/C=C(/C)CCC=C(C)C
GI50: > 100 µM (inactive)
--
compound: CC(NC(=O)C(NC(=O)OC(C)(C)C)C(C)C)C(=O)NCC(=O)ON1C(=O)CCC1=O (stereo not drawn) (Boc-Val-Ala-Gly-OSu; configuration not given here)
GI50: > 100 µM (inactive)
--
compound: CC(=O)OC1CCC2(C)C(=CCC3C2CCC2(C)C3CC3OC4(CCC(C)CN4)C(C)C32)C1 (stereo not drawn)
GI50: > 100 µM (inactive)
--
compound: C=C1C(=O)OC2CC(C)C3CC(O)OC(OCC)C3(C)CC12 (stereo not drawn)
GI50: 19.9 µM (inactive)
--
compound: CC(C)(C)OC(=O)N(CCCCNC(=O)c1ccccc1)CCCNC(=O)c1ccccc1
GI50: 98.6 µM (inactive)

Hi there! I need GI50 for each item below, if you can.
1. COc1cc2c(cc1O)C(c1cc(O)c(O)c(OC)c1)C(O)(C(=O)O)C(CO)C2O (stereo not drawn)
2. CC(C)(C)OC(=O)CCC1NC(=O)[C@@H]2Cc3c([nH]c4ccccc34)C(C3CCCCC3)N2C1=O (stereo partly drawn)
3. COc1ccc(N[C@H](C[S+]([O-])c2ccc(C)cc2)C(F)(F)F)cc1 (stereo partly drawn)

Found:
1: > 100 µM (inactive); 2: 18.8 µM (inactive); 3: > 100 µM (inactive)

###

# Tested on: SK-OV-3
# experimental-details: NCI tumour cell line growth inhibition, 48 h
The source made the active and inactive calls. Rule as the data show it: active = GI50 up to about 1.1 µM and inactive = higher.
attribute-measured: GI50

molecule: CC(=O)OC1CCC2(C)C(=CCC3C2CCC2(C)C3CC3OC4(CCC(C)CN4)C(C)C32)C1 (stereo unspecified)
GI50: > 100 µM (inactive)
//
molecule: Nc1ccc2nc3n(c(=O)c2c1)CCCCC3
GI50: > 100 µM (inactive)

Hi there! I need GI50 for each item below, if you can.
1. CC(C)N/C(N)=N/C#N
2. CC(C)(C)OC(=O)c1cccnc1/C=N/O
3. CC(=O)OC1=CC2(OC(C)=O)CC(C)(C)C1C1C(=O)C=CC(=O)C12 (stereo unspecified)
4. CCOC(=O)/C=C1\C[C@H](NC(=O)OCc2ccccc2)C(=O)N1CC(=O)OCC

Found:
> 100 µM (inactive)
> 100 µM (inactive)
> 100 µM (inactive)
> 100 µM (inactive)

Hi there! I need GI50 for each item below, if you can.
1. COc1cc([C@H]2Oc3cc(O)c4c(=O)cc(-c5ccc(O)cc5)oc4c3O[C@@H]2CO)ccc1O
2. C=C1C(=O)OC2/C=C(/C)C3CC(O)C(C)(CC(OC(=O)/C(C)=C/C)C12)O3 (stereo unspecified)
3. O=C(Cc1ccccc1)NN1C(=O)C(Cl)C1c1cc(Br)cc(Br)c1O (stereo unspecified)
4. C=CCOC(=O)C1C2OC3(C(C(=O)OC)=C2C(=O)OC)c2ccccc2CCC13 (stereo unspecified)
5. BrCC[P+](c1ccccc1)(c1ccccc1)c1ccccc1

Found:
1: 14.6 µM (inactive); 2: 36.1 µM (inactive); 3: 15.1 µM (inactive); 4: > 10 µM (inactive); 5: 24.5 µM (inactive)

###

# Tested on: XF498
# experimental-details: NCI tumour cell line growth inhibition, 48 h
Activity calls are given as the source filed them. No stated cut-off is given here; in the data, active = GI50 up to about 1.1 µM and inactive = higher.
Exercise: for every item that follows, state its recorded GI50.

compound: C=CC1(NC(=O)c2ccccc2)CCC(C(C)(C)C)CC1 (stereo unspecified)
tgt: XF498
GI50: > 43.1 µM (inactive)

compound: O=NN(CCCl)C(=O)NCCCl
tgt: XF498
GI50: 68.1 µM (inactive)

compound: Cn1nc(-c2ccccc2)c(C(=O)/C=C/c2ccc(Cl)cc2)c(N2CCCC2)c1=O
tgt: XF498
GI50: 10.4 µM (inactive)

compound: Nc1ncnc2c1ncn2C1OC(CSCc2ccc(Cl)cc2)C(O)C1O (stereo unspecified)
tgt: XF498
GI50: 22.8 µM (inactive)

Hi there! I need GI50 for each item below, if you can.
1. COC(=O)C1=C(C)N(NC(N)=O)C2(N)N(NC(N)=O)C(C)=C(C(=O)OC)C12C(=O)OC (stereo unspecified)
2. CC1(C)CC(=O)C2=C(C1)S/C(=C1/SC3=C(S1)C(=O)CC(C)(C)C3)S2
3. Nc1nc2ncn(CC(O)CO)c2c(=S)[nH]1 (stereo unspecified)

Found:
1: > 100 µM (inactive); 2: > 251 µM (inactive); 3: 23.4 µM (inactive)

Hi there! I need GI50 for each item below, if you can.
1. O=C(Nc1nc2ccccc2n1Cc1ccccc1)NC12CC3CC(CC(C3)C1)C2
2. c1ccc2cc3c(cc2c1)OP1(Oc2cccc4cccnc24)(O3)Oc2cc3ccccc3cc2O1
3. O=C1O[C@@H](c2ccccc2)C[C@H]1CN1CCOCC1
4. [N-]=[N+]=Nc1ncnc2c1sc(=S)n2-c1ccccc1
5. COc1cc(C=O)c(-c2cc3c(cc2C2(C)OCCS2)OCO3)c(OC)c1OC (stereo unspecified)

Found:
["17.8 µM (inactive)", "3.71 µM (inactive)", "81.8 µM (inactive)", "> 100 µM (inactive)", "9.66 µM (inactive)"]

Hi there! I need GI50 for each item below, if you can.
1. C=CN1C(=O)[C@H](Oc2ccccc2)[C@@H]1c1ccccc1
2. CSCSCC(N)CO.Cc1[nH]c(=O)[nH]c(=O)c1/C=C/C(=O)O
3. O=[N+]([O-])c1cnccc1-n1nnc2ccccc21
4. S=C(NCCCCCCNC(=S)Nc1c2ccccc2nc2ccccc12)Nc1c2ccccc2nc2ccccc12
5. CCCCCCC(O)C/C=C/CCCCCC/C(C(=O)OC)=C(/O)C(=O)OCC (stereo unspecified)

Found:
1. 26.1 µM (inactive)
2. > 625 µM (inactive)
3. 13.8 µM (inactive)
4. > 89.9 µM (inactive)
5. > 100 µM (inactive)
